MEASURED ON: T1, EDIII-DV1 (Dengue virus serotype 1 (DV1), UniProt P17763 581-673)
T1 construct: also called EDIII of DV1; EDIII-DVI

{"BINDER": "VH_G27P (antibody, V domains shown, also called 4E5-G27P; copies: 2 + 2) VH: VKLLEQSGAELVKPGASVRLSCTASPFNIKDTYMSWVKQRPEQGLEWIGRIDPENGDTKYDPKFQGKATITADTSSNTAYLHLSSLTSGDTAVYYCSRGWEGFAYWGQGTLVTVSA VL: ELVMTQTPASLAVSLGQRATISCRASENVDKYGNSFMHWYQQKAGQPPKLLIYRASELQWGIPARFSGSGSRTDFTLTINPVEADDVATYFCQRSNEVPWTFGGGTKLEIK", "LIMIT SIGN": "=", "Kd [nM]": 4.58}
{"BINDER": "VH_A25_del (antibody, V domains shown, also called 4E5-del-25; copies: 2 + 2) VH: VKLLEQSGAELVKPGASVRLSCTSGFNIKDTYMSWVKQRPEQGLEWIGRIDPENGDTKYDPKFQGKATITADTSSNTAYLHLSSLTSGDTAVYYCSRGWEGFAYWGQGTLVTVSA VL: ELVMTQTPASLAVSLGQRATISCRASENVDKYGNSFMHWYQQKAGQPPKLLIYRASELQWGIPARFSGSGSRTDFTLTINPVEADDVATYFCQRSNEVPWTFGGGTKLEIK", "LIMIT SIGN": "=", "Kd [nM]": 1.27}
{"BINDER": "VH_S26_del (antibody, V domains shown) VH: VKLLEQSGAELVKPGASVRLSCTAGFNIKDTYMSWVKQRPEQGLEWIGRIDPENGDTKYDPKFQGKATITADTSSNTAYLHLSSLTSGDTAVYYCSRGWEGFAYWGQGTLVTVSA VL: ELVMTQTPASLAVSLGQRATISCRASENVDKYGNSFMHWYQQKAGQPPKLLIYRASELQWGIPARFSGSGSRTDFTLTINPVEADDVATYFCQRSNEVPWTFGGGTKLEIKR", "LIMIT SIGN": "<", "Kd [nM]": 0.3}
{"BINDER": "VH_G27A (antibody, V domains shown) VH: VKLLEQSGAELVKPGASVRLSCTASAFNIKDTYMSWVKQRPEQGLEWIGRIDPENGDTKYDPKFQGKATITADTSSNTAYLHLSSLTSGDTAVYYCSRGWEGFAYWGQGTLVTVSA VL: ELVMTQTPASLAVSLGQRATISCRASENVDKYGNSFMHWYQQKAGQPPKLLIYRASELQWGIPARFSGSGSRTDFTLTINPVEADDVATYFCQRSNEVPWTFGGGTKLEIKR", "LIMIT SIGN": "<", "Kd [nM]": 0.3}
{"BINDER": "4E5A (antibody, V domains shown, also called 4E11-5A; E45A) VH: VKLLEQSGAELVKPGASVRLSCTASGFNIKDTYMSWVKQRPEQGLEWIGRIDPENGDTKYDPKFQGKATITADTSSNTAYLHLSSLTSGDTAVYYCSRGWEGFAYWGQGTLVTVSA VL: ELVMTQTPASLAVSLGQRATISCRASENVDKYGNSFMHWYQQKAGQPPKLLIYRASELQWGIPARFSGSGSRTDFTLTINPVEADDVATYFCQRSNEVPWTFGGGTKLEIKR", "LIMIT SIGN": "=", "Kd [nM]": 0.368}
{"BINDER": "VH_G27_del (antibody, V domains shown) VH: VKLLEQSGAELVKPGASVRLSCTASFNIKDTYMSWVKQRPEQGLEWIGRIDPENGDTKYDPKFQGKATITADTSSNTAYLHLSSLTSGDTAVYYCSRGWEGFAYWGQGTLVTVSA VL: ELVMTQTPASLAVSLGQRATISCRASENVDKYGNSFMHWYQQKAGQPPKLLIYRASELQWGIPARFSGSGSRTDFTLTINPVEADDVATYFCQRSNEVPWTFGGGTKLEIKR", "LIMIT SIGN": "<", "Kd [nM]": 0.3}
{"BINDER": "VH_Y106R (antibody, V domains shown, copies: 2 + 2) VH: VKLLEQSGAELVKPGASVRLSCTASGFNIKDTYMSWVKQRPEQGLEWIGRIDPENGDTKYDPKFQGKATITADTSSNTAYLHLSSLTSGDTAVYYCSRGWEGFARWGQGTLVTVSA VL: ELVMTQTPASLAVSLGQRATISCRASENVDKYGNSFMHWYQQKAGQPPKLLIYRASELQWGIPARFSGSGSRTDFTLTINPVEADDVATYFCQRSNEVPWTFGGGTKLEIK", "LIMIT SIGN": "<", "Kd [nM]": 0.3}
